Test: Inhibition of soybean lipoxygenase assessed as formation of 13-hydroperoxylinoleic acid after 7 mins

| Compound | IC50 [µM] |
| --- | --- |
| COc1ccc2cc(C(C)C(=O)N3CCSCC3)ccc2c1 (stereo unspecified) | 12 |
